Origin of measurements: the Human Domainome abundance scans (Beltran et al. 2025)

B1: Chromodomain-helicase-DNA-binding protein 3, residues 374 to 426; numbered along this chain, Q12873 (parent)
chain: YETDHQDYCEVCQQGGEIILCDTCPRAYHLVCLDPELDRAPEGKWSCPHCEKE

# Variants of: B1
# ASSAY: abundance fitness (aPCA) (normalised: wild type 0, dead -1); higher = more abundant; growth selection in yeast, the domain comes from the species named
# STUDY_CONDITIONS: Homo sapiens
Catalogue of abundance fitness readings, one per entry.
Respond with the number and no other words.

Take a look at these entries with their results.
| MUT | abundance fitness |
| --- | --- |
| I19R | -0.101 |
| H5P | -0.071 |
| D34Q | -0.112 |

Request: Fill blank: measured abundance fitness of the variant D7S is ____.
Result: -0.154

Request: And what about the variant E2C ?
Result: 0.138

Request: // next record R39A
Result: 0.068

Request: Then E10K ?
Result: 0.169

Request: Try this variant too: Q13H
Result: 0.059

Request: E17D ?
Result: -0.047

Request: Can you handle P25Q next?
Result: -0.39
